Assayed target: DNA repair and recombination protein RAD54-like (Homo sapiens) (UniProt Q92698)
Sequence (Q92698 whole entry, looked up): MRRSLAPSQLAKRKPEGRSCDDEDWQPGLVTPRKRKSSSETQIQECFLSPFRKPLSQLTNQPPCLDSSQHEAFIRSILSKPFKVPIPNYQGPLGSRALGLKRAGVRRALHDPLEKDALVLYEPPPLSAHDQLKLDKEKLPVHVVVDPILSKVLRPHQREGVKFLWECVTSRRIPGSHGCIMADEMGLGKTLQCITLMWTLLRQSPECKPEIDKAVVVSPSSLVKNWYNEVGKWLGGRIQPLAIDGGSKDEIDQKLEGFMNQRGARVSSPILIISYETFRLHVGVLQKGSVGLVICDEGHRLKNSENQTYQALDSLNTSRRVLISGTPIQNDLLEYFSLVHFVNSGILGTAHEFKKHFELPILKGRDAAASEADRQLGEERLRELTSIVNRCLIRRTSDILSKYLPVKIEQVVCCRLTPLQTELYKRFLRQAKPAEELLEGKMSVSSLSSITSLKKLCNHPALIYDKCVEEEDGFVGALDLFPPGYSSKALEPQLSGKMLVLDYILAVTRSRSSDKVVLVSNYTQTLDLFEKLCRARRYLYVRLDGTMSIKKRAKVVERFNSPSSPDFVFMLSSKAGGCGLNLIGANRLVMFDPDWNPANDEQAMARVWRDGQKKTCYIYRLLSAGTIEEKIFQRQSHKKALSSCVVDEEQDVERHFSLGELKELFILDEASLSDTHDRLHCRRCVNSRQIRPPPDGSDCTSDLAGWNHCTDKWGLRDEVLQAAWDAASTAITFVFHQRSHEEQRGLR
Assay notes: inhibitors of human RAD54 branch migration, primary screen, biochemical, fluorescence, single point (AID 602329);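 further: 0% = median of neutral control wells and 100% = median of positive control wells; inhibitors cause a drop in the FAM fluorescence signal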
Recorded conditions: RAD54 Holliday junction branch migration, FAM/BHQ fluorescence; at 10.4 µM; stronger effect = higher value
In all, about 360,000 compounds went through this assay and about 510 (0.14%) were called active. The sample as a whole holds a higher share of actives than the screen did.

# Molecule, inhibition, %
measured = [
    ("O=S(=O)(c1ccc(F)cc1)N1CC[C@@H]2[C@@H](CO)Nc3ccc(-c4ccccc4F)cc3[C@@H]21", 7.93),
    ("CO[C@H]1CN(C)C(=O)c2ccc(NC(=O)C3CCOCC3)cc2OC[C@H](C)NC[C@H]1C", -0.243),
    ("COc1ccc(S(=O)(=O)N(C)C[C@@H]2OCCCC[C@@H](C)Oc3ccc(NC(=O)CCCN(C)C)cc3C(=O)N([C@@H](C)CO)C[C@@H]2C)cc1", -3.63),
    ("C[C@@H]1CCCCO[C@@H](CN(C)C(=O)NC2CCCCC2)[C@H](C)CN([C@H](C)CO)C(=O)c2cc(NC(=O)c3ccccc3)ccc2O1", -0.448),
    ("Cc1ccc2nc3c(cc(C(=O)NCCc4ccccc4)c(=N)n3CC3CCCO3)c(=O)n2c1 (stereo not drawn)", 12.1),
    ("CN1c2ccc(C#Cc3cccnc3)cc2[C@@H]2[C@@H](CCN2S(=O)(=O)c2ccccc2)[C@H]1CO", -8.94),
    ("C[C@H]1CN([C@@H](C)CO)C(=O)c2cc(NC(=O)C3CC3)ccc2O[C@@H]1CN(C)S(=O)(=O)c1cn(C)cn1", -0.446),
    ("CCCNC(=O)Nc1ccc2c(c1)C(=O)N(C)C[C@H](OC)[C@H](C)CN(Cc1ccncc1)[C@H](C)CO2", 3.54),
    ("CNC[C@H]1Oc2cc(C#Cc3ccccc3)ccc2S(=O)(=O)N([C@@H](C)CO)C[C@@H]1C", 1.19),
    ("CC(C)NC(=O)N(C)C[C@H]1Oc2ncc(-c3ccccc3F)cc2C(=O)N([C@@H](C)CO)C[C@@H]1C", -5.71),
    ("O=C1CCN(CCCc2ccccc2)CCN1CCO", -1.44),
    ("CC(C)NC(=O)Nc1ccc2c(c1)C(=O)N([C@@H](C)CO)C[C@@H](C)[C@H](CN(C)Cc1ccc(-c3ccccc3)cc1)O2", 20.7),
    ("CCCC#Cc1ccc([C@@H]2[C@H](CO)N3CCCCN(S(=O)(=O)c4ccccc4F)C[C@@H]23)cc1", 6.77),
    ("CNC(=O)C[C@H]1CC[C@H]2[C@@H](COc3ccc(NC(=O)c4cccc(OC)c4)cc3C(=O)N2C)O1", 7.1),
    ("CCCNC(=O)C[C@@H]1CC[C@H]2[C@@H](COC[C@@H](O)CN2Cc2ccccc2F)O1", 6.11),
    ("CC(C)C(=O)Nc1ccc2c(c1)C(=O)N(C)[C@H]1CC[C@H](CC(=O)NCc3ccc(F)cc3)O[C@H]1CO2", 7.1),
    ("Cc1ccc(S(=O)(=O)c2cc3c(=O)n4cccc(C)c4nc3n(CCc3ccccc3)c2=N)cc1C", 0.033),
    ("COc1ccccc1-c1ccc2n(c1=O)C[C@H]1[C@H](CO)[C@@H](C(=O)N[C@@H](C)c3ccccc3)[C@@H]2N1C", -1.98),
    ("COc1ccc(NC(=O)Nc2ccc3c(c2)CC(=O)N([C@@H](C)CO)C[C@H](C)[C@H](CN(C)C(=O)Nc2ccc4c(c2)OCO4)O3)cc1", -3.32),
    ("CC1CCN(CCCn2c(SCC(=O)NC3CCCC3)nc3ccccc3c2=O)CC1", -8.12),
    ("CN1C(=O)c2cc(NS(=O)(=O)c3ccccc3F)ccc2OC[C@@H]2O[C@@H](CC(=O)NC3Cc4ccccc4C3)CC[C@@H]21", -2.97),
    ("Cc1ccc(S(=O)(=O)Nc2ccc3c(c2)C(=O)N([C@H](C)CO)C[C@H](C)[C@H](CN(C)Cc2ccccc2)OCCCC[C@@H](C)O3)cc1", 5.79),
    ("Cc1ccc(S(=O)(=O)Nc2ccc3c(c2)C(=O)N([C@@H](C)CO)C[C@H](C)[C@@H](CN(C)C(=O)Nc2ccc(F)cc2)OCCCC[C@H](C)O3)cc1", 8.58),
    ("C[C@@H]1CN([C@@H](C)CO)C(=O)c2cc(C#Cc3ccncc3)cnc2O[C@@H]1CN(C)C(=O)CN(C)C", 0.163),
    ("COc1ccc(NC(=O)Nc2ccc3c(c2)C(=O)N([C@H](C)CO)C[C@@H](C)[C@H](CN(C)Cc2ccccc2)O3)cc1", 22.5),
    ("O=C(Nc1cccc(Cl)c1)c1cc([N+](=O)[O-])ccc1N1CCN(CCO)CC1", -11.1),
    ("COc1ccc(-c2ccc3c(c2)[C@H]2[C@H](CCN2C(=O)c2ccc4c(c2)OCO4)[C@@H](CO)N3)cc1", -2.22),
    ("O=C1c2ccccc2C(=O)c2c1cccc2N1CCN(CCO)CC1", 84.2),
    ("CCCCCn1c(=O)c(C(=O)OCC)c(Cl)c2ccccc21", 0.614),
    ("CC(=O)N1[C@H](CO)[C@@H](c2ccccc2)[C@@H]1CN(CC(C)C)C(=O)c1ccccn1", -0.684),
    ("O=C(C1CCC1)N1CC[C@H]2[C@H](CO)Nc3ccc(-c4cccc(F)c4)cc3[C@H]21", 2.5),
    ("CC1CCN(C(=O)CCNC(=O)c2ccccc2)CC1", -8.53),
    ("O=C(COC(=O)CCCN1C(=O)c2cccc3cccc(c23)C1=O)NC1CCS(=O)(=O)C1 (stereo not drawn)", -5.27),
]
